Assay: NFAT Signaling Pathway (AID 444);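 note: carbachol stimulus at about its EC50 of 1 µM final; % is set by controls: 0 for no effect and ±100 for the full control effect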
Details: Jurkat NFAT-bla M1, carbachol, beta-lactamase ratio, 5 h; at 7.69 µM (top of the series) unless noted
Protocol: NCGC Assay Overview: The nuclear factor of activated T cells (NFAT) family of transcription factors has been found primarily in most immune system cells and some other non-immune cells. NFAT plays the immunomodulatory role, primarily in T-cell activation and differentiation. […] NCGC Assay Protocol Summary: The cells were prepared in RPMI 1640 medium containing 0.1% dialyzed FBS and 25 mM HEPES at 1.6 x 10^6cell/ml. […] The %Activity was determined from the ratio of 460nm/530nm. […]
Records with an inconclusive call do not appear. The source made the active and inactive calls. Calls come from the whole dose curve; as a rule, active = well fitted curve in either direction with a large enough effect (not every such curve was filed as active); inconclusive = small, poorly fitted or top-dose-only effect, or another doubt; inactive = flat fitted curve, though single readings scatter.
I'd appreciate it if you could supply activity change, negative = inhibition values for the items below.

Give its activity change, negative = inhibition value. Item: `N[C@H](C(=O)O)[C@@H](O)c1cnc[nH]1`
-4.22% (inactive)

Give its activity change, negative = inhibition value. Item: `CC#C[C@@]1(O)CC[C@@H]2[C@@H]3CCC4=CC(=O)CCC4=C3[C@@H](c3ccc(N(C)C)cc3)C[C@]21C`
7.8% [at 38 µM] (inactive)

Give its activity change, negative = inhibition value. Item: `OCCCNCc1ccccn1`
5.11% (inactive)

Give its activity change, negative = inhibition value. Item: `O=C(O)CSSCC(=O)O`
15.8% (inactive)

Give its activity change, negative = inhibition value. Item: `C[C@H](CN(C)C)C(=O)c1ccccc1C(=O)O`
-1.83% (inactive)

Give its activity change, negative = inhibition value. Item: `O=C(O)c1nn(-c2ccc(Cl)cc2)c2c1C(=O)c1ccccc1C2=O`
-17.6% (inactive)

Give its activity change, negative = inhibition value. Item: `CC[C@H](C(=O)c1cccs1)C(O)(C(F)(F)F)C(F)(F)F`
20.8% (inactive)

Give its activity change, negative = inhibition value. Item: `N/C(CC/C(N)=N/O)=N\O`
7.17% (inactive)

Give its activity change, negative = inhibition value. Item: `CN(CCc1ccccn1)c1ccc2c(c1)C(=O)c1ccccc1-2`
0.0317% (inactive)

Give its activity change, negative = inhibition value. Item: `C/C(=N/NC1=NCCN1)c1cn(C2=NCCN2)nc1C`
-15.6% (inactive)

Give its activity change, negative = inhibition value. Item: `O=C1Nc2ccccc2C1=Nc1ccc(S(=O)(=O)Nc2nccs2)cc1`
12.8% (inactive)

Give its activity change, negative = inhibition value. Item: `Cc1cc(O)c(C(C)C)cc1NC(=O)Nc1cccc2ccccc12`
-15.2% (inactive)

Give its activity change, negative = inhibition value. Item: `C[C@@]12C(=O)OC(=O)[C@@]1(C)[C@H]1CC[C@@H]2O1`
-104% [at 38 µM] (active)

Give its activity change, negative = inhibition value. Item: `C=CCNS(=O)(=O)c1ncnc2nc[nH]c12`
-12.1% (inactive)

Give its activity change, negative = inhibition value. Item: `C[C@H](C(=O)c1ccncc1)c1ccccn1`
-8.81% (inactive)

Give its activity change, negative = inhibition value. Item: `COC(=O)[C@@H]1[C@H]2C[C@H]3c4[nH]c5cc(OC)ccc5c4CCN3C[C@@H]2C[C@@H](OC(=O)c2cc(OC)c(OC)c(OC)c2)[C@@H]1OC`
3.19% [at 38 µM] (inactive)

Give its activity change, negative = inhibition value. Item: `COc1cc2c3cc1Oc1cc(ccc1O)C[C@@H]1c4c(cc(OC)c(O)c4Oc4ccc(cc4)C[C@H]3[N+](C)(C)CC2)CC[N+]1(C)C`
0.638% (inactive)

Give its activity change, negative = inhibition value. Item: `Nc1nc2nc3c(nc2c(=O)[nH]1)CN(c1ccc(C(=O)O)cc1)C3=O`
13.8% (inactive)

Give its activity change, negative = inhibition value. Item: `NCCC1([N+](=O)[O-])CCNCC1`
12.9% (inactive)

Give its activity change, negative = inhibition value. Item: `NCCNCC1CCNCC1`
8.35% (inactive)

Give its activity change, negative = inhibition value. Item: `O=C1CCC[C@H]1C(=O)Nc1ccc2ccccc2c1`
16.2% (inactive)

Give its activity change, negative = inhibition value. Item: `O=C(O)c1cc(N=Nc2ccc([N+](=O)[O-])cc2)ccc1O`
28.6% (inactive)

Give its activity change, negative = inhibition value. Item: `NC(=O)C/C=C\CC(N)=O`
10.3% (inactive)

Give its activity change, negative = inhibition value. Item: `O=C(O)CCSCc1ccccc1`
-0.126% (inactive)

Give its activity change, negative = inhibition value. Item: `Cc1cc(=O)oc2c(OS(C)(=O)=O)c(OS(C)(=O)=O)ccc12`
5.12% (inactive)

Give its activity change, negative = inhibition value. Item: `O=C(O)[C@@H]1[C@@H](C(=O)NCc2ccccn2)[C@@H]2C=C[C@@H]1O2`
-3.89% (inactive)

Give its activity change, negative = inhibition value. Item: `CC(C)(Oc1ccc(-c2cccc3ccccc23)cc1)C(=O)O`
-8.87% (inactive)

Give its activity change, negative = inhibition value. Item: `CCCn1cnc2c(SCc3ccc(Cl)cc3)nc(N)nc21`
-4.9% (inactive)

Give its activity change, negative = inhibition value. Item: `CCOC(=S)SCC(=O)O`
9.65% (inactive)

Give its activity change, negative = inhibition value. Item: `O=C(O)c1cncc(C(=O)O)c1`
3.72% (inactive)

Give its activity change, negative = inhibition value. Item: `O=C(O)CCC(=O)c1ccc[nH]1`
3.55% (inactive)

Give its activity change, negative = inhibition value. Item: `O=C(O)Cc1cccnc1`
15.8% (inactive)

Give its activity change, negative = inhibition value. Item: `CO[C@@H](NC(N)=O)C(=O)O`
1.38% (inactive)

Give its activity change, negative = inhibition value. Item: `C[N+](C)([O-])Cc1cc(-c2ccccc2)ccc1O`
1.32% (inactive)

Give its activity change, negative = inhibition value. Item: `Cc1cc(C)nc(SCCc2cccc[n+]2C)n1`
-24.4% (inactive)

Give its activity change, negative = inhibition value. Item: `NCC[C@H]1CCC[C@H](CCN)N1`
2.27% [at 38 µM] (inactive)

Give its activity change, negative = inhibition value. Item: `O=C(O)c1cc(=O)[nH]c(=S)[nH]1`
5.67% (inactive)

Give its activity change, negative = inhibition value. Item: `C[C@@H]1Oc2ccc(C(=O)C[C@@H](C(=O)O)c3ccc4c(c3)OCO4)cc2O1`
-10.8% (inactive)

Give its activity change, negative = inhibition value. Item: `O=C(O)c1cc(C(=O)C(=O)c2cc(C(=O)O)c(O)c3ccccc23)c2ccccc2c1O`
10.6% (inactive)

Give its activity change, negative = inhibition value. Item: `Cc1cccc(CNc2nc(-c3ccc(C(=O)N(C)C)cc3)nc3ccccc23)c1`
25.2% (inactive)

Give its activity change, negative = inhibition value. Item: `c1ccc2c(CN3CCN(Cc4c[nH]c5ccccc45)CC3)c[nH]c2c1`
5.24% (inactive)

Give its activity change, negative = inhibition value. Item: `CCC(=O)[C@@H](c1ccccc1)c1ccccn1`
-5.51% (inactive)

Give its activity change, negative = inhibition value. Item: `Cn1cnc([N+](=O)[O-])c1SCC(=O)O`
3.51% (inactive)

Give its activity change, negative = inhibition value. Item: `Clc1ccccc1C(Nc1cnccn1)Nc1cnccn1`
6.25% (inactive)

Where do the numbers come from? From PubChem BioAssay (NCATS).
